Origin of the recorded values: ChEMBL document CHEMBL1128500

- Tested on: CHO
- Procedure details: Effect on spermidine uptake in CHO cells at concentration 10 uM.
- Format: functional
Property label: Control (%)
Kindly provide the numeric value in % only, without the unit symbol.

Before answering, review these 3 worked examples.
Mol smiles: N=C(N)NCCCCCNCCCCCNC(=N)N
Property label: Control
Numeric readout: 95
//
Mol smiles: NCCCCNCCCCN=C(N)N
Property label: Control
Numeric readout: 28
//
Mol smiles: N=C(N)NCCCCCCNCCCCCCNC(=N)N
Property label: Control
Numeric readout: 95

Inquiry: Control lookup needed for N=C(N)NCCCOCCCNC(=N)N , thanks.
Reply text: 100

Inquiry: Likewise for NCCCOCCCN=C(N)N ?
Reply text: 95

Inquiry: Likewise for CCNCCCCCCCN=C(N)N ?
Reply text: 95

Inquiry: Likewise for NCCCNCCCN=C(N)N ?
Reply text: 34

Inquiry: Likewise for N=C(N)NCCCNCCCNC(=N)N ?
Reply text: 95

Inquiry: Likewise for NCCCSCCCN=C(N)N ?
Reply text: 100

###

- Target under test: Deoxyhypusine synthase (Homo sapiens)
- Sequence (whole entry): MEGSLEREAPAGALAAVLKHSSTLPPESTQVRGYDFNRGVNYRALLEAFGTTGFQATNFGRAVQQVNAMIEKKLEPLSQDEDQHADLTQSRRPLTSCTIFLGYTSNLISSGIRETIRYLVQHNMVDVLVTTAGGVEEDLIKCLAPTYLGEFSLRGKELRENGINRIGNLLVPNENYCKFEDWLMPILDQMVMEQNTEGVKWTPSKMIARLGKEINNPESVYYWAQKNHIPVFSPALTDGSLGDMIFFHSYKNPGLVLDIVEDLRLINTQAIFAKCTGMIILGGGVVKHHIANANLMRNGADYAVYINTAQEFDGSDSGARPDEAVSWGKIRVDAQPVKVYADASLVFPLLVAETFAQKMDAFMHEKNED
- Procedure details: Effect on protein synthesis in CHO cells at concentration 3 uM.
- Stated conditions: Cricetulus griseus
The following molecules are listed with their measured Control values.
Kindly provide the numeric value in % only, without the unit symbol.

Before answering, review these 4 worked examples.
Mol smiles: N=C(N)NCCCSCCCNC(=N)N
Control, %: 100

Mol smiles: NCCCSCCCN
Control, %: 86

Mol smiles: NCCCCNCCCCN=C(N)N
Control, %: 88

Mol smiles: CCNCCCCCCCN=C(N)N
Control, %: 34

Attention now shifts to the item below.
Inquiry: Control lookup needed for NCCCOCCCN , thanks.
Reply text: 100

###

- Target under test: Deoxyhypusine synthase (Rattus norvegicus)
- Sequence (Q6AY53 whole entry): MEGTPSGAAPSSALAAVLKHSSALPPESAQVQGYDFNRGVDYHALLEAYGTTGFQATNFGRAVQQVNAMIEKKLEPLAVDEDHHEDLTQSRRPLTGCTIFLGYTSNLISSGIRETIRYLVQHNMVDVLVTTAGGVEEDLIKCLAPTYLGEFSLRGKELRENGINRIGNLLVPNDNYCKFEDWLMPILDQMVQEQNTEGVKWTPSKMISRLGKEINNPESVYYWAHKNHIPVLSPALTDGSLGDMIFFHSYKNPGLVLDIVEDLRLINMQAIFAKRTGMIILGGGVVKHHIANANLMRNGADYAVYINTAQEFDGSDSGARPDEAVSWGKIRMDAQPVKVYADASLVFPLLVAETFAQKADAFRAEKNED
pIC50: −log10 of the molar value.
# binarize pIC50: threshold 5 inclusive, high side TRUE, low side FALSE

Some entries whose results are on file:
Mol smiles: NCCCNCCCN
Class: FALSE
--
Mol smiles: N=C(N)NCCCCCCCCNC(=N)N
Class: FALSE
--
Mol smiles: N=C(N)NCCCCNCCCCNC(=N)N
Class: TRUE
--
Mol smiles: CCNCCCCCCCN
Class: FALSE
--
Mol smiles: NCCCCNCCCCN
Class: FALSE

Inquiry: For this compound, is measured pIC50 5 or higher? N=C(N)SCCCCSC(=N)N
Reply text: FALSE

Inquiry: Likewise for [H]/N=C(/N)NCCCCCNC(=N)N ?
Reply text: TRUE

Inquiry: Likewise for N=C(N)SCCCCCCCSC(=N)N ?
Reply text: FALSE
